Tested on: CP256
procedure summary: qHTS profiling for inhibitors of Plasmodium falciparum proliferation (AID 504749); also: nearly all actives have a fitted effect of over 60% in size
condition set: P. falciparum in erythrocytes, SYBR Green DNA, 72 h; series mostly up to 28.7 µM
Records with an inconclusive call do not appear. Calls of active or inactive are those of the source. Calls follow the shape of the dose curve; as a rule, active = well fitted inhibition curve with a large enough effect; inconclusive = small, poorly fitted or top-dose-only effect; inactive = flat fitted curve, though single readings scatter.
reported property: outcome

Some solved cases for reference:
molecule: O=CCCCC=O
outcome: inactive

molecule: CCCCC(C)(O)C/C=C/[C@H]1[C@H](O)CC(=O)[C@@H]1CCCCCCC(=O)OC (stereo not given in full)
outcome: inactive

molecule: Cc1cn([C@H]2C[C@H](O)[C@@H](CO)O2)c(=O)[nH]c1=O
outcome: inactive

molecule: O=C(O)c1cc(=O)c2c3nc4ccccc4oc-3cc(=O)c2[nH]1
outcome: inactive

// next item, outcome requested
Prompt line: // fetch outcome for CCCC(=O)Nc1ncnc2c1ncn2C1OC2COP(=O)(O)OC2C1OC(=O)CCC (stereo not given) ; system: CP256
Response line: inactive

Values compiled from PubChem BioAssay (NCATS).
